targetSystem: plasma purified human complement protein C3 (human) (UniProt P01024)
Sequence (P01024 23-667, chain 1 of 2): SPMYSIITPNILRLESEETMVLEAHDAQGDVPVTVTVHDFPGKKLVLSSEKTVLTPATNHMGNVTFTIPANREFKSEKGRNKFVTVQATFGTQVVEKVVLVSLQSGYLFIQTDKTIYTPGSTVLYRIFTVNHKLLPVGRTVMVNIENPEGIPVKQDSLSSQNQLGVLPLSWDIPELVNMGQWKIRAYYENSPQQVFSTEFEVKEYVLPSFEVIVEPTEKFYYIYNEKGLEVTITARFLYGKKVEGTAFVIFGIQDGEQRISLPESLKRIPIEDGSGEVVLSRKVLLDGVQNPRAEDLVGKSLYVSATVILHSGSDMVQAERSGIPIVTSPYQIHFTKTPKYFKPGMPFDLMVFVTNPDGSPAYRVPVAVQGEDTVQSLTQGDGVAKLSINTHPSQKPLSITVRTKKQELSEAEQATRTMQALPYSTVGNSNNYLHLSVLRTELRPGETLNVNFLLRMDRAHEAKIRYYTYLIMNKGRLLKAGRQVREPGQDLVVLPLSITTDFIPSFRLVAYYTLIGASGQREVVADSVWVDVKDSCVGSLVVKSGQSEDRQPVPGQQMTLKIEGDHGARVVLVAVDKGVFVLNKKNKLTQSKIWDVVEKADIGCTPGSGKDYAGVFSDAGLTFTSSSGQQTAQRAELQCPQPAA
Sequence (P01024 672-1663, chain 2 of 2): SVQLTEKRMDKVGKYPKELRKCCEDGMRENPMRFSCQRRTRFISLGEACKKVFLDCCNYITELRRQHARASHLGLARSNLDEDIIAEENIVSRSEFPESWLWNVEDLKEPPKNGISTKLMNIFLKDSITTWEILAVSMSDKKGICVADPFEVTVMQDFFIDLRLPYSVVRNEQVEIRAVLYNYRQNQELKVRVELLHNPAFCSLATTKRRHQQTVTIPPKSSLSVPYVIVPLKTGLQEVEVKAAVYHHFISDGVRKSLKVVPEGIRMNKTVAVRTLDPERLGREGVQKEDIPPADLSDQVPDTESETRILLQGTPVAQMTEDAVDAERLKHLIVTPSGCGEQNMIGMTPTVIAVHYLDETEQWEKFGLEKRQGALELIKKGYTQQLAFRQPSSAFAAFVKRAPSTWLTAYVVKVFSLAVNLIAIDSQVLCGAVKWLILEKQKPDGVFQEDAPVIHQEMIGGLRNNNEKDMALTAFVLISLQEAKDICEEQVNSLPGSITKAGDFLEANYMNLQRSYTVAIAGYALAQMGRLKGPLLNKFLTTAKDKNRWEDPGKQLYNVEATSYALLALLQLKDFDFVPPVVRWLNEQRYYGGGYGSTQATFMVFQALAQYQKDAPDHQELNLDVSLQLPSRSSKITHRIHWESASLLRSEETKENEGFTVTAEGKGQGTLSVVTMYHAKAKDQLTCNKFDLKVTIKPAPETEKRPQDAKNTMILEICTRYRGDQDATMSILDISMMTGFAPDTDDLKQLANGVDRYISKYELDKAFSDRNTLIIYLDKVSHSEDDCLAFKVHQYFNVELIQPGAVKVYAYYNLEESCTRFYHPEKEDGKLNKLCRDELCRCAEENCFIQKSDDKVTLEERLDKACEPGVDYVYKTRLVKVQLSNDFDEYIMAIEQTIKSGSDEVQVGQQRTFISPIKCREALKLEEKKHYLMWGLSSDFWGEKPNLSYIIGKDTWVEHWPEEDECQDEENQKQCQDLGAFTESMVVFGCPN
assayProcedure: cell-based or functional assay
Reported EC50 of hC3 cleavage is given for each of the following binders.
Numbers only; they are read as nM.

The examples below pair each entry with its known result.
MTSP-1 Q38E/H40R/I41H/D60bK/F60eT/F97D/F99L/C122S/Q175L/Q192G (enzyme) VVGGTDADEGEWPWQVSLHALGEGRHCGASLISPNWLVSAAHCYIDKRGTRYSDPTQWTAFLGLHDQSQRSAPGVQERRLKRIISHPFFNDDTLDYDIALLELEKPAEYSSMVRPISLPDASHVFPAGKAIWVTGWGHTQYGGTGALILQKGEIRVINQTTCENLLPQLITPRMMCVGFLSGGVDSCGGDSGGPLSSVEADGRIFQAGVVSWGDGCAQRNKPGVYTRLPLFRDWIKENTGV | 16.6
MTSP-1 Q38H/I41A/D60bV/F60eR/Y60gW/D96I/ins97aN/F97Y/T98G/F99L/C122S/G151N/Q175L/Q192D (enzyme) VVGGTDADEGEWPWQVSLHALGHGHACGASLISPNWLVSAAHCYIDVRGRRWSDPTQWTAFLGLHDQSQRSAPGVQERRLKRIISHPFFNIYNGLDYDIALLELEKPAEYSSMVRPISLPDASHVFPAGKAIWVTGWGHTQYGGTNALILQKGEIRVINQTTCENLLPQLITPRMMCVGFLSGGVDSCDGDSGGPLSSVEADGRIFQAGVVSWGDGCAQRNKPGVYTRLPLFRDWIKENTGV | 2.23

Problem: Requested read-out: EC50 of hC3 cleavage. Entry: MTSP-1 F97D/ins97aV/T98P/F99L/C122S/G151N/Q192G (enzyme) VVGGTDADEGEWPWQVSLHALGQGHICGASLISPNWLVSAAHCYIDDRGFRYSDPTQWTAFLGLHDQSQRSAPGVQERRLKRIISHPFFNDDVPLDYDIALLELEKPAEYSSMVRPISLPDASHVFPAGKAIWVTGWGHTQYGGTNALILQKGEIRVINQTTCENLLPQQITPRMMCVGFLSGGVDSCGGDSGGPLSSVEADGRIFQAGVVSWGDGCAQRNKPGVYTRLPLFRDWIKENTGV
Solution: 87
